- Tested System: UniProt P51812
- Experimental Details: ELISA kinase activity assay, RSK2
- Assay type: biochemical
- Condition Notes: RSK2, 2 h pre-incubation, 10 μM ATP, 30 min reaction
Measurement Kind: IC50 (nM)

1. CCCNC(=O)OC1C(CCC)CC(Oc2c(-c3ccc(O)cc3)oc3cc(O)cc(O)c3c2=O)C(O)C1OC(C)=O (stereo not drawn) = 74.1
2. CCCC1CC(Oc2c(-c3ccc(O)cc3)oc3cc(O)cc(O)c3c2=O)C(O)C(OC(C)=O)C1OC(C)=O (stereo not drawn) = 183
3. CCCNC(=O)O[C@@H]1[C@@H](OC(C)=O)[C@@H](O)[C@H](Oc2c(-c3ccc(O)cc3)oc3cc(O)cc(O)c3c2=O)O[C@H]1CCC = 84.7

* * *

- Tested System: RSK1 (Homo sapiens)
- Sequence (Q15418 whole entry): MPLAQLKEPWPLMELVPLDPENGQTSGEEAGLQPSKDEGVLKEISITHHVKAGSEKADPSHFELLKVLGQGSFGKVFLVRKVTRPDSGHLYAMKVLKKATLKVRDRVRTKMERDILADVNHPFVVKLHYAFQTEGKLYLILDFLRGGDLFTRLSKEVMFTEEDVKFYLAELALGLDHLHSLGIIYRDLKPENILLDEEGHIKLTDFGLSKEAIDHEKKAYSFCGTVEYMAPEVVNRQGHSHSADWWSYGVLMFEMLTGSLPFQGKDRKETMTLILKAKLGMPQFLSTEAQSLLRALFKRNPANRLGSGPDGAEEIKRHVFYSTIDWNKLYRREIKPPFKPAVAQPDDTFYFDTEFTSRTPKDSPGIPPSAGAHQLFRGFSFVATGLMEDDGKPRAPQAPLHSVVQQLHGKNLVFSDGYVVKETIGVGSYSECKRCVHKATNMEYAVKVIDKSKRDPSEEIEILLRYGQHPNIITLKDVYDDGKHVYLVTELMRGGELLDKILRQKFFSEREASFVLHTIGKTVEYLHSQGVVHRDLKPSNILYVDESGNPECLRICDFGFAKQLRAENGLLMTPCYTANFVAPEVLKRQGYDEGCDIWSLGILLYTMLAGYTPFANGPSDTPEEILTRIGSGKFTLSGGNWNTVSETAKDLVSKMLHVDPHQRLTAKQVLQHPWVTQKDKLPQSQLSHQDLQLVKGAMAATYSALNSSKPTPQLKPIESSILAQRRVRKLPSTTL
- Experimental Details: FRET kinase binding assay, RSK1
- Condition Notes: FRET, RSK1, 5 min incubation
Measurement Kind: IC50 (nM)

1) CC(=O)OC1C(C)OC(Oc2c(-c3ccc(O)cc3)oc3cc(O)cc(O)c3c2=O)C(O)C1OC(C)=O (stereo not shown) [SL0101, reference compound] = 774

* * *

- Tested System: RSK2 (Homo sapiens, UniProt P51812)
- Sequence (P51812 whole entry): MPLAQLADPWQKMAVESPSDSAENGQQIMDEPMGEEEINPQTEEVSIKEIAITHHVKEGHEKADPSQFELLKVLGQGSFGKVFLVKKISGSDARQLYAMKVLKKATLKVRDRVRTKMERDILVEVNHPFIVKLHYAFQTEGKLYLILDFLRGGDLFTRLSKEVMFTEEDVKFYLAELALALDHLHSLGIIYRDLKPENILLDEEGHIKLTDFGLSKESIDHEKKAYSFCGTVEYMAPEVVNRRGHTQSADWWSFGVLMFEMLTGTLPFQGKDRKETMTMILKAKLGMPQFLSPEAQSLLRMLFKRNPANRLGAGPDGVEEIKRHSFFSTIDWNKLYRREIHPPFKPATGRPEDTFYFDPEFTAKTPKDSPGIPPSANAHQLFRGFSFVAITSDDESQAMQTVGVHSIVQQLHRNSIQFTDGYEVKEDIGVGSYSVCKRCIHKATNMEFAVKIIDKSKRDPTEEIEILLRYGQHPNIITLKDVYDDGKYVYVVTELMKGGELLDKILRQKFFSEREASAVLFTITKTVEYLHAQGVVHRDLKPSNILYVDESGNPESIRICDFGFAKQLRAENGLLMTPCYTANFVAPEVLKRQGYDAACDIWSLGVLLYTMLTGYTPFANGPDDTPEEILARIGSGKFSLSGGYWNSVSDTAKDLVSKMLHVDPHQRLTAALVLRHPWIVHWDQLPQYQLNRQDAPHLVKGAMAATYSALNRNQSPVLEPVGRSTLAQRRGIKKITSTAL
- Experimental Details: FRET kinase binding assay (LanthaScreen Eu Kinase Binding Assay), full-length RSK2
- Condition Notes: FRET, RSK2, 2 h kinase-inhibitor incubation before tracer, 15 nM tracer
pIC50: −log10 of the molar value.
Measurement Kind: pIC50

1. CCCNC(=O)OC1C(CCC)CC(Oc2c(-c3ccc(O)cc3)oc3cc(O)cc(O)c3c2=O)C(O)C1OC(=O)NCCC (centres unmarked) = 7.04
2. CCCNC(=O)O[C@@H]1[C@@H](OC(=O)NCCC)[C@@H](O)[C@H](Oc2c(-c3ccc(O)cc3)oc3cc(O)cc(O)c3c2=O)O[C@H]1CCC = 7.08
3. CCCC1CC(Oc2c(-c3ccc(O)cc3)oc3cc(O)cc(O)c3c2=O)C(O)C(OC(C)=O)C1OC(C)=O (centres unmarked) = 6.67
4. CCCNC(=O)O[C@@H]1[C@@H](OC(C)=O)[C@@H](O)[C@H](Oc2c(-c3ccc(O)cc3)oc3cc(O)cc(O)c3c2=O)O[C@H]1CCC = 7.43
5. CCCNC(=O)OC1C(CCC)CC(Oc2c(-c3ccc(O)cc3)oc3cc(O)cc(O)c3c2=O)C(O)C1OC(C)=O (centres unmarked) = 7.58

* * *

Relative Off-Rate values for the compounds below.
- Tested System: UniProt:P51812
- Experimental Details: FRET kinase binding assay (LanthaScreen Eu Kinase Binding Assay), full-length RSK2
- Condition Notes: RSK2; slope of change in IC50 over time after 2 h pre-incubation, log-log fit
Measurement Kind: Relative Off-Rate

1) CCCC1CC(Oc2c(-c3ccc(O)cc3)oc3cc(O)cc(O)c3c2=O)C(O)C(OC(C)=O)C1OC(C)=O (centres unmarked) = 0.601 log10(nM/min)
2) CCCNC(=O)O[C@@H]1[C@@H](OC(C)=O)[C@@H](O)[C@H](Oc2c(-c3ccc(O)cc3)oc3cc(O)cc(O)c3c2=O)O[C@H]1CCC = 0.126 log10(nM/min)
3) CCCNC(=O)OC1C(CCC)CC(Oc2c(-c3ccc(O)cc3)oc3cc(O)cc(O)c3c2=O)C(O)C1OC(C)=O (centres unmarked) = 0.548 log10(nM/min)
4) CCCNC(=O)O[C@@H]1[C@@H](OC(=O)NCCC)[C@@H](O)[C@H](Oc2c(-c3ccc(O)cc3)oc3cc(O)cc(O)c3c2=O)O[C@H]1CCC = 0.417 log10(nM/min)
5) CCCNC(=O)OC1C(CCC)CC(Oc2c(-c3ccc(O)cc3)oc3cc(O)cc(O)c3c2=O)C(O)C1OC(=O)NCCC (centres unmarked) = 0.630 log10(nM/min)

* * *

- Tested System: RSK2 (Homo sapiens)
- Experimental Details: ELISA kinase activity assay, RSK2
- Format: biochemical
- Condition Notes: RSK2, 2 h pre-incubation, 30 μM inhibitor
Measurement Kind: % Uninhibited kinase at 30 μM

1) CCCC1CC(Oc2c(-c3ccc(O)cc3)oc3cc(O)cc(O)c3c2=O)C(O)C(OC(C)=O)C1OC(C)=O (stereo not shown) [Inhibitor 1b, C5”-n-propyl cyclitol SL0101] = 15.7%
2) CC(=O)OC1C(C)OC(Oc2c(-c3ccc(O)cc3)oc3cc(O)cc(O)c3c2=O)C(O)C1OC(C)=O (stereo not shown) [SL0101, reference compound] = 13.9%
3) CCCNC(=O)O[C@@H]1[C@@H](OC(C)=O)[C@@H](O)[C@H](Oc2c(-c3ccc(O)cc3)oc3cc(O)cc(O)c3c2=O)O[C@H]1CCC [Inhibitor 1c] = 9.4%
4) CCCNC(=O)OC1C(CCC)CC(Oc2c(-c3ccc(O)cc3)oc3cc(O)cc(O)c3c2=O)C(O)C1OC(C)=O (stereo not shown) [Inhibitor 1d] = 11.1%

* * *

- Tested System: RSK1 (Homo sapiens)
- Experimental Details: FRET kinase binding assay, RSK1
- Condition Notes: FRET, RSK1, 2 h incubation
pIC50: −log10 of the molar value.
Measurement Kind: pIC50

1) CC(=O)OC1C(C)OC(Oc2c(-c3ccc(O)cc3)oc3cc(O)cc(O)c3c2=O)C(O)C1OC(C)=O (centres unmarked) [SL0101, reference compound] = 6.71
2) CCCNC(=O)O[C@@H]1[C@@H](OC(C)=O)[C@@H](O)[C@H](Oc2c(-c3ccc(O)cc3)oc3cc(O)cc(O)c3c2=O)O[C@H]1CCC [Inhibitor 1c] = 7.89

* * *

- Tested System: RSK2 (Homo sapiens)
- Experimental Details: FRET kinase binding assay (LanthaScreen Eu Kinase Binding Assay), full-length RSK2
- Condition Notes: FRET, RSK2, 2 h incubation, 30 μM inhibitor
- Procedure: Normalised EMR was calculated in MATLAB (Mathworks). Hill slope and IC50 were unconstrained. […] Statistical significance is considered using α = 0.01.
% Uninhibited kinase at 30 μM values for the compounds below.
Measurement Kind: % Uninhibited kinase at 30 μM (%)

1. CCCNC(=O)O[C@@H]1[C@@H](OC(C)=O)[C@@H](O)[C@H](Oc2c(-c3ccc(O)cc3)oc3cc(O)cc(O)c3c2=O)O[C@H]1CCC = 0.3
2. CCCNC(=O)OC1C(CCC)CC(Oc2c(-c3ccc(O)cc3)oc3cc(O)cc(O)c3c2=O)C(O)C1OC(C)=O (stereo not drawn) = 0.5
3. CCCNC(=O)O[C@@H]1[C@@H](OC(=O)NCCC)[C@@H](O)[C@H](Oc2c(-c3ccc(O)cc3)oc3cc(O)cc(O)c3c2=O)O[C@H]1CCC = 0.8
4. CC(=O)OC1C(C)OC(Oc2c(-c3ccc(O)cc3)oc3cc(O)cc(O)c3c2=O)C(O)C1OC(C)=O (stereo not drawn) [SL0101, reference compound] = 4.3
5. CCCC1CC(Oc2c(-c3ccc(O)cc3)oc3cc(O)cc(O)c3c2=O)C(O)C(OC(C)=O)C1OC(C)=O (stereo not drawn) = 1.3
6. CCCNC(=O)OC1C(CCC)CC(Oc2c(-c3ccc(O)cc3)oc3cc(O)cc(O)c3c2=O)C(O)C1OC(=O)NCCC (stereo not drawn) = 1.3

* * *

- Tested System: RSK2 NTKD (Homo sapiens, UniProt P51812)
- Construct: domain, containing residues 1–389; made in house
- Sequence (P51812 1-389): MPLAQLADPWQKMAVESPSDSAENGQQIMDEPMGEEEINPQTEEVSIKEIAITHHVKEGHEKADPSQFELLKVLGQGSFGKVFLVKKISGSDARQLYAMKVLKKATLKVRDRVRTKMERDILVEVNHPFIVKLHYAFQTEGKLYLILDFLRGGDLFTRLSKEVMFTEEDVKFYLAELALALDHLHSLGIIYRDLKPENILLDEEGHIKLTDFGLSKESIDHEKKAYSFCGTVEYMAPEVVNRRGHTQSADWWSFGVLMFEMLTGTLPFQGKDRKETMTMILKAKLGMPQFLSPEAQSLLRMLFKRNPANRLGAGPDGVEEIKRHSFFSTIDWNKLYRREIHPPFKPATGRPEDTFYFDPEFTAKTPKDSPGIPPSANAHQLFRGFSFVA
- Experimental Details: FRET kinase binding assay, isolated RSK2 NTKD
- Condition Notes: 2 h incubation
Measurement Kind: IC50 (nM)

1. CCCNC(=O)O[C@@H]1[C@@H](OC(C)=O)[C@@H](O)[C@H](Oc2c(-c3ccc(O)cc3)oc3cc(O)cc(O)c3c2=O)O[C@H]1CCC [Inhibitor 1c] = 12
